- Test system: BT-549 breast
- procedureText: NCI-60 one-dose screen, 48 h
- conditionLabel: 10 µM unless noted
About 83,000 compounds went through this panel and 20% of them were active in at least one assay; those are over-represented in the sample as a whole. Calls of active or inactive are those of the source. Rule for the calls: active = growth percent below 10; inactive = the rest.
// one of label 1 for active, label 0 for inactive, no free text

Observe how each entry below is paired with its result.
compound=O=C1N=C(c2c(-c3[nH]c(=O)c4ccc(Br)cc4c3O)c(O)c3ccccc3c2O)C(=O)c2cc(Br)ccc21 assignedclass="label 1"
compound=CCNC(=O)CCCCC(=O)c1c(C)[nH]c(/C=C2\N=C(c3ccc[nH]3)C=C2OC)c1C assignedclass="label 1"
compound=COc1cccc(NC(=O)c2sc3nc4c(cc3c2N)CCCC4)c1 assignedclass="label 0"
compound="CCOC(=O)c1ccccc1NC(c1ccccc1)c1ccc2cccnc2c1O (stereo unspecified)" assignedclass="label 0"
compound=N#Cc1ncc(-c2ccc(F)c(F)c2F)c(NC2CCCCCC2)n1 assignedclass="label 0"

Record lookup: outcome of this test for O=C(C[N+](=O)[O-])c1ccc(Cl)cc1 ?
label 0

Record lookup: outcome of this test for COc1ccc(/C=C/C(=O)c2ccc(NC(=O)CN3CCN(c4cc5c(cc4F)c(=O)c(C(=O)O)cn5C4CC4)CC3)cc2)cc1 ?
label 0

Identify the outcome logged in this assay for the compound shown: Nc1cccc2c1CN(C1CCC(=O)NC1=O)C2=O (stereo unspecified)
label 0

Each compound tested received a call. Report the one for O=C(Nc1ccc(I)cc1)c1cc([N+](=O)[O-])ccc1O .
label 0

// return assay outcome for COc1cc(C2CC(c3c(C)[n+]([O-])c4ccccc4[n+]3[O-])=NN2)cc(OC)c1OC (stereo unspecified)
label 0

Please state the recorded outcome for this compound: Cc1cc2c(C(C)C)c(O)c(O)c(C=NCCCCC(=O)O)c2c(O)c1-c1c(C)cc2c(C(C)C)c(O)c(O)c(C=NCCCCC(=O)O)c2c1O
label 0

====

- Tested on: RPMI-8226 leukemia
- procedureText: NCI-60 one-dose screen, 48 h
- conditionLabel: 10 µM unless noted
Compounds without any hit were thinned out: in the full panel of roughly 83,000, 20% have a hit. The source made the active and inactive calls. The calls were made as follows: active = growth percent below 10; inactive = the rest.
// classify into active, inactive

Observe how each entry below is paired with its result.
structuresmilesstring=COc1ccc(/C=C/C(=O)c2cc(OC)c(OC)c(OC)c2)cc1OCc1cn(Cc2ccc(F)cc2)nn1 targetsystem="RPMI-8226 leukemia" assignedclass=active
structuresmilesstring=N#Cc1ccc(NC(=O)c2ccc3cccnc3c2O)cc1 targetsystem="RPMI-8226 leukemia" assignedclass=inactive
structuresmilesstring=O=C(N/N=C/c1c(Cl)cccc1Cl)c1ccccc1Nc1ccnc(C(F)(F)F)c1 targetsystem="RPMI-8226 leukemia" assignedclass=inactive
structuresmilesstring=Cc1oc2ncnc(Nc3ccccc3)c2c1C(=O)NCCO targetsystem="RPMI-8226 leukemia" assignedclass=inactive
structuresmilesstring=CC(C)C[C@H](NC(=O)Cn1ccc(NCc2ccccc2)cc1=O)B(O)O targetsystem="RPMI-8226 leukemia" assignedclass=active
structuresmilesstring=Cn1c(=O)c2c(nc3n2CCN(CCc2ccc(OCCN4CCOCC4)cc2)C3)n(C)c1=O targetsystem="RPMI-8226 leukemia" assignedclass=inactive

Assay outcome for CC[C@H](C)[C@H]1NC(=O)[C@@H](N[C@](C)(O)[C@@H](N)CC(C)C)[C@@H](C)OC(=O)[C@H](Cc2ccc(OC)cc2)N(C)C(=O)[C@@H]2CCCN2C(=O)[C@H](CC(C)C)NC(=O)[C@@H](C)C(=O)[C@H](C(C)C)OC(=O)C[C@@H]1O : what was it?
active

Each compound tested received a call. Report the one for CCN(C(=O)c1cc2ncccc2[nH]1)[C@H]1CCC[C@@H](NCc2cccc(F)c2)C1 .
inactive

====

- Tested on: NCI-H460 lung
- procedureText: NCI-60 one-dose screen, 48 h (100 = growth as untreated, 0 = no growth, -100 = all killed)
- conditionLabel: 10 µM unless noted
- Experimental: Growth inhibition of the NCI-H460 human Non-Small Cell Lung tumor cell line is measured as a screen for anti-cancer activity. Cells are grown in 96 well plates and exposed to the test compound for 48 hours. Compounds are tested at a single concentration, which is 10^-5 M for most compounds. The reported endpoint is percent growth (GI% or GIPRCNT), where numbers from 0 - 100% represent growth inhibition, and numbers from -100% - 0 represent cell death. […]
The panel holds about 83,000 compounds, 20% with a hit somewhere; the sample as a whole holds those more often.
measuredParameter: growth (%)
Numbers only, in %.

Solved entries:
molecule=O=C(OCCCCOC(=O)n1cnc2ccccc21)n1cnc2ccccc21 measurementunit=% measured=103
molecule=O=c1oc2c([nH]c3ccc4ccccc4c32)c2ccccc12 measurementunit=% measured=112
molecule=O=C(Nc1ccc(F)cc1)c1cc([N+](=O)[O-])ccc1O measurementunit=% measured=64.2
molecule=COc1cc(-c2n[nH]nc2-c2ccc3c(c2)OCCO3)cc(OC)c1OC measurementunit=% measured=2.69
molecule=COc1ccc(/C=C/C(=O)OCC(=O)NNC(=O)c2ccccc2)cc1OC measurementunit=% measured=110

Please report growth for every entry that follows.
1. COC1=CC(c2ccc[nH]2)=N/C1=C\c1[nH]c(C)c(C(=O)CCCCC(=O)NCc2ccccc2)c1C
2. CN1C(=O)[C@H]2c3c1cccc3[C@@]13NC(=O)O[C@H]1[C@H](CCC3(C)C)C2(C)C
3. CC(=O)OC[Si](C)(C)c1ccccc1
4. Cc1cccc(-n2c(C)nc3ccc(NC(=O)NCCCl)cc3c2=O)c1
5. O=C(NCCc1c[nH]c2ccccc12)C1Cc2ccccc2CN1C(=O)c1ccco1 (stereo not given)

1. 1.07
2. 105
3. 103
4. 100
5. 114

====

- System: HCC-2998 colon
- procedureText: NCI-60 one-dose screen, 48 h (100 = growth as untreated, 0 = no growth, -100 = all killed)
- conditionLabel: 10 µM unless noted
The panel holds about 83,000 compounds, 20% with a hit somewhere; the sample as a whole holds those more often.
Label Yes when growth is at or above 80%; anything below gets No.

molecule=NS(=O)(=O)c1ccc(CN2C(=O)c3cccc4cccc(c34)C2=O)cc1 targetsystem="HCC-2998 colon" assignedclass=Yes
molecule=CN(C)c1ncc(-c2ccc(C(F)(F)F)cc2)c(NC2CCCCCC2)n1 targetsystem="HCC-2998 colon" assignedclass=No
molecule=COC1=CC(c2ccc[nH]2)=N/C1=C\c1[nH]c(C)c(C(=O)CCCCC(=O)Nc2ccccc2)c1C targetsystem="HCC-2998 colon" assignedclass=No
molecule=COc1ccc2c(c1)C(=O)/C(=C/c1ccc(O)cc1)O2 targetsystem="HCC-2998 colon" assignedclass=Yes
molecule="Cc1c(C2=NNC(c3ccc4c(c3)OCO4)C2)[n+]([O-])c2ccccc2[n+]1[O-] (stereo not given)" targetsystem="HCC-2998 colon" assignedclass=Yes
molecule=CCCCCCCCCCCCCCCCCCOc1cccc(CCOP(=O)(O)OCC[N+](C)(C)C)c1 targetsystem="HCC-2998 colon" assignedclass=Yes
molecule=C=C1C(=O)O[C@H]2[C@H]1CC/C(Cn1cc(-c3ccccc3C(F)(F)F)nn1)=C\CC[C@@]1(C)O[C@@H]21 targetsystem="HCC-2998 colon" assignedclass=No
molecule=Cc1ccc2nc(-c3c(CCCO)noc3N)[nH]c(=O)c2c1 targetsystem="HCC-2998 colon" assignedclass=Yes

Tell me whether growth is at least 80% here: COc1ccc(OC)c(-c2ccc(-c3ccccc3N)c3[nH]c4ccccc4c23)c1
Yes

hey, is growth for this one >= 80%? COc1ccc(C2NC3=C(CCCC3)C(C#N)(C#N)C2(C#N)C#N)cc1 (stereo not given)
Yes

====

- Tested on: MCF7 breast
- procedureText: NCI-60 one-dose screen, 48 h (100 = growth as untreated, 0 = no growth, -100 = all killed)
- conditionLabel: 10 µM unless noted
About 83,000 compounds went through this panel and 20% of them were active in at least one assay; those are over-represented in the sample as a whole.
So I've got a bunch of molecules here, and I need their growth values.
One number for each entry, in %.

Guide cases for growth, answers given:
molecule="CCN1C(=O)N(CC)C2C1NN=c1s/c(=C3\\C(=O)N(C4CCCC4)c4ccccc43)c(=O)n12 (stereo not given)" measured=21.4
molecule="CC(Cc1nnc(SCC(=O)Nc2ccc(I)cc2)n1N)c1ccccc1 (stereo not given)" measured=93.4
molecule=CCCCCCCCCCCCNC(=S)N/N=C/c1ccc(Cl)c(Cl)c1 measured=102

I'm hoping you can list growth for every molecule here, please.
1. CC/C=C\C[C@H](O)C/C=C1/C(=O)C(Cl)=C[C@@H]1C/C=C\CCCC(=O)OC
2. O=C(Nc1cc(C(F)(F)F)cc(C(F)(F)F)c1)Nc1ccc(OCc2nnc(-c3ccc(Cl)cc3)o2)c(F)c1
3. O=[N+]([O-])c1ccc(S(=O)(=O)N2CCN(c3ccnc4cc(Cl)ccc34)CC2)c([N+](=O)[O-])c1
4. CCCCOc1nc2c(C)cccc2cc1C1CNC(=O)c2ccccc2N1 (stereo not given)

1. -71.2
2. 6.03
3. 52.7
4. 15.8

Take each entry in turn and give its growth.
1. COc1ccc(-c2cn[nH]c2-c2cc(OC)c3c(c2)OCCO3)cc1
2. CCSc1nnc(NC(=O)COc2ccc(Cl)cc2C)s1
3. COc1ccc(C2CC(c3cccs3)=NN2c2ccc(S(=O)(=O)NC(=O)Nc3ccc(C)cc3)cc2)cc1 (stereo not given)
4. C=CC(=O)N[C@H](/C=C/C(=O)OCC)Cc1ccc(-c2cc(Cl)cc(Cl)c2)cc1
5. COc1cc2c3c(c(=O)oc2cc1OS(=O)(=O)c1ccc(C(F)(F)F)cc1)CCCCC3
6. O=C(Nc1cccc(C(F)(F)F)c1)Nc1ccc(OCc2nnc(-c3ccccc3)o2)c(F)c1

1. 19.6
2. 91
3. 97.1
4. 82.8
5. 89.6
6. 24.8

I'm hoping you can list growth for every molecule here, please.
1. CC(=O)Nc1ccc(S(=O)(=O)NC(CCC(=O)Nc2ccc(Cl)cc2)C(=O)O)cc1 (stereo not given)
2. COc1ccc(/C=C2\CCCC3=C2NC(C)=NC3c2ccc(OC)c(OC)c2)cc1OC (stereo not given)
3. CCSc1nnc(NC(=O)Cc2ccc(Cl)cc2)s1
4. CC(C)N(Cc1ccc(CN(C(=O)CCl)C(C)C)cc1)C(=O)CCl
5. CC(C)(C)c1ccc(S(=O)(=O)Oc2ccc3c4c(c(=O)oc3c2)CCCCC4)cc1
6. COc1ccc(/C(=N/O)c2cc(F)c(F)c(OC)c2F)cc1O

1: 84.8; 2: 26.3; 3: 101; 4: 23.8; 5: 32.3; 6: 18.7

Dear reader, for each entry below, please note its growth.
1. O=S(=O)(NCCCNc1cc(-c2cn(-c3ccccc3)nc2-c2cccc(O)c2)ccn1)c1ccc(C(F)(F)F)cc1
2. O=C(O)c1cccc([N+](=O)[O-])c1/C=C/c1ccccc1
3. COc1ccc2c(c1)C=CC(C#N)N2C(=O)c1ccccc1 (stereo not given)
4. CCn1cc(C(=O)O)c(=O)c2cc(F)c(N3CCN(S(=O)(=O)c4cccc5ccccc45)CC3)cc21
5. Nc1cccc2c1CN(C1CCC(=O)NC1=O)C2=O (stereo not given)
6. Oc1ccc(Cl)cc1-c1cc(-c2ccc(Cl)cc2)n[nH]1
7. CC(C)CCC[C@@H](C)[C@H]1CC[C@H]2[C@@H]3CC[C@H]4C/C(=N/O)CC[C@]4(C)[C@H]3CC[C@]12C
8. Cc1ccc2c(c1)C(=O)C(c1c(-c3[nH]c(=O)c4ccc(C)cc4c3O)c(O)c3ccccc3c1O)=NC2=O

[22, 95.5, 15, 14.6, 94.5, 3.03, 103, 12.3]
